Target: Human plasma kallikrein (Homo sapiens (Human), UniProt P03952)
Sequence (P03952 391-638): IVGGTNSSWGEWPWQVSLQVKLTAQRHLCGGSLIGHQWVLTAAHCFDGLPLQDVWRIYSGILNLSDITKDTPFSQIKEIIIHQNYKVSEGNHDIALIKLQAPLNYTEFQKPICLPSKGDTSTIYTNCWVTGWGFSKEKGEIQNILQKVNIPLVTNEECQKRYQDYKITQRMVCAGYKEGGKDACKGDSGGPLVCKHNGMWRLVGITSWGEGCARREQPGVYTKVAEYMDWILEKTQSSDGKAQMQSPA
Sequence (P03952 20-390 partner): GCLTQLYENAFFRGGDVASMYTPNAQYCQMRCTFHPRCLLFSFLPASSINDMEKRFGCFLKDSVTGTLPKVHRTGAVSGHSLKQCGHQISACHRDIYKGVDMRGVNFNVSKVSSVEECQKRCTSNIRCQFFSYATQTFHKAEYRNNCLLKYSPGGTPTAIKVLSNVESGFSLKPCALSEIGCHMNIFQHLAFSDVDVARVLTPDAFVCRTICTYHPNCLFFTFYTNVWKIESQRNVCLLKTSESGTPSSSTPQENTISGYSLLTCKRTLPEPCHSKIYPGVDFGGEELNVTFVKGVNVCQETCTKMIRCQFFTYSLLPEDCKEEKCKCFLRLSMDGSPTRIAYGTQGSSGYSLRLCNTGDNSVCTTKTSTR
Experiment: Kallikrein Assay
Details: purified Human plasma kallikrein 0.5 nM, Acetyl-K-P-R-AFC, pH 7.4; Ki from IC50 by Cheng Prusoff
pKi: −log10 of the molar value.
Assign class by pKi: not lower than 8 means 1; lower than 8 means -1.

Query :: Hello, I need to know if Nc1n[nH]c2cc(C(=O)N[C@@H](Cc3ccccc3)C(=O)N3CCCC4(C3)OC(=O)Nc3ccc(Cl)c(F)c34)ccc12 (stereo partly shown) has measured pKi not below 8. Thanks!
Result :: 1

Query :: Say whether `COC(=O)Nc1ccc(C(=O)N[C@@H](Cc2ccc(OC)cn2)C(=O)N2CCC[C@@]3(C2)OC(=O)Nc2ccc(Cl)c(F)c23)cc1` shows pKi of 8 or more.
Result :: 1

Query :: Is reported pKi greater than or equal to 8 here: `Nc1n[nH]c2cc(C(=O)N[C@@H](CC3CC3)C(=O)N3CCC[C@@]4(C3)OC(=O)Nc3ccc(Cl)c(F)c34)ccc12`
Result :: 1

Query :: Exam item: decide whether the reported pKi for `O=C1Nc2ccc(Cl)c(F)c2[C@@]2(CCCN(C(=O)[C@H](Cc3ccccc3)NC(=O)c3ccc4[nH]nc(C(F)(F)F)c4c3)C2)O1` is at least 8.
Result :: -1

Query :: Quick check: does `COC(=O)Nc1ccc(C(=O)N[C@@H](CC2CCOCC2)C(=O)N2CCC[C@@]3(C2)OC(=O)Nc2ccc(Cl)cc23)cc1` have pKi greater than or equal to 8?
Result :: 1

Query :: Could you please find out whether COC(=O)Nc1ccc(C(=O)N[C@@H](Cc2cncn2C)C(=O)N2CCC3(C2)OC(=O)Nc2ccc(Cl)cc23)cc1 (stereo partly shown) has pKi that meets 8 or exceeds it?
Result :: -1

Query :: Please check the record `COC(=O)Nc1ccc(C(=O)N[C@@H](Cc2ccncc2)C(=O)N2CCC[C@@]3(C2)OC(=O)Nc2ccc(Cl)c(F)c23)cc1` and state if its pKi is at or above 8.
Result :: 1

Query :: I'd appreciate it if you could say whether O=C(Nc1ccc(C(=O)N[C@@H](Cc2ccccc2)C(=O)N2CCC3(C2)OC(=O)Nc2ccc(Cl)cc23)cc1)OC[C@@H]1CCCO1 (stereo partly shown) has pKi at least equal to 8.
Result :: -1

Query :: Kindly determine if pKi recorded for COC(=O)Nc1ccc(C(=O)N[C@@H](Cc2sccc2F)C(=O)N2CCC3(C2)OC(=O)Nc2ccc(Cl)cc23)cc1 (stereo partly shown) is above or exactly 8.
Result :: -1

Query :: Does `O=C1Nc2ccc(Cl)cc2[C@@]2(CCN(C(=O)[C@H](Cc3ccccc3)NC(=O)c3ccc4[nH]c(=O)c(=O)[nH]c4c3)C2)O1` have a reported pKi of at least 8?
Result :: -1

Query :: Please tell me: is the compound COC(=O)Nc1ccc(C(=O)N[C@@H](Cc2ccc3ccccc3c2)C(=O)N2CCC3(C2)OC(=O)Nc2ccc(Cl)cc23)cc1 (stereo partly shown) at or over 8 in terms of pKi?
Result :: -1

Query :: Given the entry `O=C1Nc2ccc(Cl)c(F)c2[C@@]2(CCCN(C(=O)[C@H](CC3CC3)NC(=O)c3ccc4[nH]nc(O)c4c3)C2)O1` , answer whether its pKi meets or surpasses 8.
Result :: 1

Query :: Check this compound for pKi at or above 8: `O=C1CCc2cc(C(=O)N[C@@H](CC3CC3)C(=O)N3CCC[C@@]4(C3)OC(=O)Nc3ccc(Cl)c(F)c34)ccc2N1`
Result :: 1

Query :: Has O=C1Nc2ccc(Cl)cc2C2(CCN(C(=O)[C@H](Cc3ccccc3)NC(=O)c3ccc(Nc4ncc[nH]4)cc3)C2)O1 (stereo partly shown) a recorded pKi greater than or equal to 8?
Result :: -1

Query :: Quick check, pKi >= 8? `Nc1n[nH]c2cc(C(=O)N[C@@H](CC(=O)N3CCCC3)C(=O)N3CCC[C@@]4(C3)OC(=O)Nc3ccc(Cl)cc34)ccc12`
Result :: 1

Query :: Reported pKi at or above 8? `O=C1Nc2ccc(Cl)c(F)c2[C@@]2(CCCN(C(=O)[C@H](Cc3ccccc3)NC(=O)c3ccc4[nH]c(=O)cc(O)c4c3)C2)O1`
Result :: 1

Query :: Can `COC(=O)Nc1ccc(C(=O)N[C@@H](Cc2ccc(NC(C)=O)cc2)C(=O)N2CCC[C@@]3(C2)OC(=O)Nc2ccc(Cl)cc23)cc1` be said to have pKi at or above 8?
Result :: 1

Query :: Could you please find out whether COC(=O)Nc1ccc(C(=O)N[C@@H](C[C@@H](C)OC)C(=O)N2CCC[C@@]3(C2)OC(=O)Nc2ccc(Cl)c(F)c23)cc1 [Example 118B] has pKi that meets 8 or exceeds it?
Result :: 1

* * *

Target: human Factor XIa (Homo sapiens (Human))
Sequence (P03951 388-625): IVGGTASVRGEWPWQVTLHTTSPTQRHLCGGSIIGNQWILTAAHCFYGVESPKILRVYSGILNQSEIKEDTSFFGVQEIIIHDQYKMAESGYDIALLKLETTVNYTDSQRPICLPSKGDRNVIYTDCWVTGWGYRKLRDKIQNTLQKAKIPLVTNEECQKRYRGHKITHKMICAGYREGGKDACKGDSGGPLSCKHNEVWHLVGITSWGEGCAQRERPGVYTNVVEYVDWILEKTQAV
Sequence (P03951 19-387 partner): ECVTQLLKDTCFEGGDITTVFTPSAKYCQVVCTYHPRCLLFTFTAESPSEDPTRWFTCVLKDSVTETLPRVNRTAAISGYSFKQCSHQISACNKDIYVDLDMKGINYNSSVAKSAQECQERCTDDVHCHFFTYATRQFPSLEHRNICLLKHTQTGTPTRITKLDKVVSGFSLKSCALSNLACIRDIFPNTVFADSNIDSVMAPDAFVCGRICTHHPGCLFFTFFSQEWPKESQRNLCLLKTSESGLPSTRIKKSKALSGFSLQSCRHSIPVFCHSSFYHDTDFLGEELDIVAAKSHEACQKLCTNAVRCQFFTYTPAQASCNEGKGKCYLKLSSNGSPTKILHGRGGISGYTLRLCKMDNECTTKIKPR
Test: Factor XIa Assay
Format: biochemical
Details: purified human Factor XIa 40 pM, Z-Gly-Pro-Arg-AFC 100 μM, pH 7.4; read-out: FXIa Ki
REPORTED METRIC: log10 of Ki (log10 of the value in nM)
Quick note: numbers are log10 of Ki, with nM as the unit.

Query :: Field request: log10 of Ki | item: COC(=O)Nc1ccc(C(=O)N[C@@H](CC2CC2)C(=O)N2CC[C@@]3(C2)OC(=O)Nc2ccc(Cl)cc23)cc1 [Example 21b]
Result :: 1.49

Query :: # get_value(readout='log10 of Ki', item= `COC(=O)Nc1ccc(C(=O)N[C@@H](CCF)C(=O)N2CCC[C@@]3(C2)OC(=O)Nc2ccc(Cl)c(F)c23)cc1` )
Result :: 1.00

Query :: // query log10 of Ki value for entry `COC(=O)Nc1ccc(C(=O)N[C@@H](CC(=O)N2CC[C@H]2CO)C(=O)N2CCC[C@@]3(C2)OC(=O)Nc2ccc(Cl)cc23)cc1`
Result :: 0.56

Query :: If you can, please state the reported log10 of Ki value of `COC(=O)Nc1ccc(C(=O)N[C@@H](CC(F)F)C(=O)N2CCC[C@@]3(C2)OC(=O)Nc2ccc(Cl)c(F)c23)cc1` .
Result :: 1.18

Query :: Which log10 of Ki is listed for COC(=O)Nc1ccc(C(=O)N[C@@H](Cc2ccccc2)C(=O)N2CCC3(C2)NC(=O)Nc2ccc(Cl)cc23)cc1 (single isomer, unassigned) [Example 19b] ?
Result :: 2.85

Query :: # query: log10 of Ki of entry `COC(=O)Nc1ccc(C(=O)N[C@@H](Cc2ccccc2)C(=O)N2CC[C@]3(C2)OC(=O)Nc2ncc(Cl)cc23)cc1`
Result :: 3.54

Query :: Return reported log10 of Ki; argument: `COC(=O)Nc1ccc2onc(N[C@@H](Cc3ccccc3)C(=O)N3CCC[C@@]4(C3)OC(=O)Nc3ccc(Cl)cc34)c2c1`
Result :: 3.94

Query :: Name the reported log10 of Ki value associated with the compound COC(=O)Nc1ccc(C(=O)N[C@@H](Cc2ccccc2)C(=O)N2CCCCC3(C2)OC(=O)Nc2ccc(Cl)cc23)cc1 (stereo partly shown)
Result :: 3.66

Query :: Report log10 of Ki for COC(=O)Nc1ccc(-c2nnc(C(Cc3ccccc3)C(=O)N3CC[C@@]4(C3)OC(=O)Nc3ccc(Cl)c(F)c34)o2)cc1 (single isomer, unassigned) [Example 129B] please.
Result :: 2.51

Query :: Entry `COC(=O)Nc1ccc(C(=O)N[C@@H](Cc2ccccc2)C(=O)N2CCC[C@@]3(C2)OC(=O)Nc2ccc(C)c(F)c23)cc1` : reported log10 of Ki = ?
Result :: 0.59

* * *

Target: human Factor XIa (Homo sapiens (Human))
Test: Factor XIa Assay
Type: biochemical
Conditions: purified human Factor XIa 40 pM, Z-Gly-Pro-Arg-AFC 100 μM, pH 7.4; read-out: FXIa Ki
REPORTED METRIC: Ki

Query :: Name the recorded Ki for `COC(=O)Nc1ccc(C(=O)N[C@@H](CCCCNC(=O)C(F)(F)F)C(=O)N2CCC[C@@]3(C2)OC(=O)Nc2ccc(Cl)cc23)cc1` .
Result :: 0.052 µM

Query :: Looking for the measured Ki of `COC(=O)Nc1ccc(C(=O)N[C@@H](Cc2ccc(-c3cc[nH]n3)cc2)C(=O)N2CC[C@@]3(C2)OC(=O)Nc2ccc(Cl)cc23)cc1` , can you help?
Result :: 0.00348 µM

Query :: Which Ki value is on record for `COC(=O)Nc1ccc(C(=O)N[C@@H](CC(=O)NC2CCC2)C(=O)N2CCC[C@@]3(C2)OC(=O)Nc2ccc(Cl)cc23)cc1` ?
Result :: 0.0337 µM

* * *

Biological target: human Factor XIa (Homo sapiens (Human))
Test: Factor XIa Assay
Assay type: biochemical
Conditions: read-out: FXIa Ki
Returns: string. Value is 1.0 if measured Ki is below 100 nM, and 0.0 if it is greater than or equal to it.

Query :: I'd appreciate it if you could check whether `Cc1[nH]c2ccc(C(=O)N[C@@H](Cc3ccccc3)C(=O)N3CCC[C@@]4(C3)OC(=O)Nc3ccc(Cl)cc34)cc2c1C(=O)O` has Ki smaller than 100 nM.
Result :: 1.0

Query :: # check: Ki < 100 nM for Nc1n[nH]c2ccc(C(=O)N[C@@H](Cc3ccccc3)C(=O)N3CCC4(C3)OC(=O)Nc3ccc(Cl)cc34)cc12 (stereo partly shown)
Result :: 1.0

Query :: Field: below-cutoff. Rule: recorded Ki strictly less than 100 nM. Subject: `COC(=O)NCc1ccc(C(=O)N[C@@H](Cc2ccccc2)C(=O)N2CCC[C@@]3(C2)OC(=O)Nc2ccc(Cl)c(F)c23)cc1`
Result :: 1.0

Query :: State whether 100 nM exceeds Ki recorded for O=C1COc2cc(C(=O)N[C@@H](Cc3ccccc3)C(=O)N3CCC4(C3)OC(=O)Nc3ccc(Cl)cc34)ccc2N1 (stereo partly shown) .
Result :: 1.0

Query :: Is the reported Ki for `O=C1Nc2ccc(Cl)cc2[C@@]2(CCCN(C(=O)[C@H](Cc3ccccc3)NC(=O)c3ccc4[nH]c(=O)cc(O)c4c3)C2)O1` strictly below 100 nM?
Result :: 1.0

Query :: Field: below-cutoff. Rule: recorded Ki strictly less than 100 nM. Subject: O=C1Nc2ccc(Cl)cc2C2(CCN(C(=O)[C@H](Cc3ccccc3)NC(=O)c3ccc4[nH]cnc4c3)C2)O1 (stereo partly shown)
Result :: 1.0

Query :: hey, is Ki for `O=C1Nc2ccc(Cl)c(F)c2[C@@]2(CCCN(C(=O)[C@H](Cc3ccccc3)NC(=O)c3ccc4[nH]nc(C(F)(F)F)c4c3)C2)O1` lower than 100 nM or not?
Result :: 0.0

Query :: In the record for CS(=O)(=O)c1ccc(C(=O)N[C@@H](Cc2ccccc2)C(=O)N2CCC3(C2)OC(=O)Nc2ccc(Cl)cc23)nc1 (stereo partly shown) , is Ki less than 100 nM?
Result :: 0.0

Query :: hey, is Ki for `O=C1Nc2ccc(Cl)cc2[C@@]2(CCCN(C(=O)[C@H](Cc3ccccc3)NC(=O)c3ccc(C(=O)O)s3)C2)O1` lower than 100 nM or not?
Result :: 1.0

Query :: Find out if reported Ki for Cc1ncc(C(=O)N[C@@H](Cc2ccccc2)C(=O)N2CCC3(C2)OC(=O)Nc2ccc(Cl)cc23)cn1 (stereo partly shown) is less than 100 nM
Result :: 0.0

Query :: Consider `COC(=O)Nc1ccc(C(=O)N[C@@H](CC2CC2)C(=O)N2CCC[C@@]3(C2)OC(=O)Nc2ccc(Cl)cc23)cn1` . Does its Ki lie strictly below 100 nM?
Result :: 0.0

Query :: Does `COC(=O)Nc1cnc(C(=O)N[C@@H](Cc2ccccc2)C(=O)N2CCC[C@@]3(C2)OC(=O)Nc2ccc(Cl)c(F)c23)nc1` have Ki strictly under 100 nM?
Result :: 1.0

Query :: Strictly below 100 nM: is that where Ki of O=C1Nc2ccc(Cl)cc2C2(CCN(C(=O)[C@H](Cc3ccccc3)NC(=O)c3ccc(C4(C(=O)O)CC4)cc3)C2)O1 (stereo partly shown) sits?
Result :: 0.0
